// reported HDAC6 selectivity (fold) for each item listed
- studyTarget: human recombinant HDAC6 (Homo sapiens)
- Construct: purchased Calbiochem 382180
- Sequence (Q9UBN7 whole entry): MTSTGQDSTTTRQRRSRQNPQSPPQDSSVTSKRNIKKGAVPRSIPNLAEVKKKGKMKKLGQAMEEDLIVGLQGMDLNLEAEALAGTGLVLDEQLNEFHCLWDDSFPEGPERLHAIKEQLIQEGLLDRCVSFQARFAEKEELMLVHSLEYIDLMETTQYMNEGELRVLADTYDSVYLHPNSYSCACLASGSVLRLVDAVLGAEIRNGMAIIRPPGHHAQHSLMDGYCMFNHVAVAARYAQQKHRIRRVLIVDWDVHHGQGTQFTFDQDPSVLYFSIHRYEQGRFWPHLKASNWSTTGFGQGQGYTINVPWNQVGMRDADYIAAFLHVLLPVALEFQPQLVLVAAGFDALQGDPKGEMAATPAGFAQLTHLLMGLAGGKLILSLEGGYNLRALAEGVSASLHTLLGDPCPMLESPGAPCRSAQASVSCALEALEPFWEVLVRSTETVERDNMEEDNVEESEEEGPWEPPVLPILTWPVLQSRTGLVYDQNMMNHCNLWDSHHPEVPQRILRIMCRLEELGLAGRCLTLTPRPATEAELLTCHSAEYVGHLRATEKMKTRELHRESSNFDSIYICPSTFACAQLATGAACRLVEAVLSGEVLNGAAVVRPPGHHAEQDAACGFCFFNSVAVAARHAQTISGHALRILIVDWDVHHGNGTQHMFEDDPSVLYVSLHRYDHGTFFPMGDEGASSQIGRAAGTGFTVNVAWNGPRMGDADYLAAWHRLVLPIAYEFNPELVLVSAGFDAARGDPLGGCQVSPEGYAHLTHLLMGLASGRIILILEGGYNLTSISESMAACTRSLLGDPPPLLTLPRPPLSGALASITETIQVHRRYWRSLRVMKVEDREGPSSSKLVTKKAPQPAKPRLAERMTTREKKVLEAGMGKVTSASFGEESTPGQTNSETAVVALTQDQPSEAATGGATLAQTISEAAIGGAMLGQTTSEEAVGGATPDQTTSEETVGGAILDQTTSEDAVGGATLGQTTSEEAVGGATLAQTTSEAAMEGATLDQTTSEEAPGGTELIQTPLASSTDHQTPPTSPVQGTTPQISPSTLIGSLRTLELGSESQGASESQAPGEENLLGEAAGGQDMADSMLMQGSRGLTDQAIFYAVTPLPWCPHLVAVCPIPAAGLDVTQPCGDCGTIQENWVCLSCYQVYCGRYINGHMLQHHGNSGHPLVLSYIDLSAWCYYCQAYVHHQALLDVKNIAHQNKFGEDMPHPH
- protocolText: HDAC6 enzyme activity inhibition test (HDAC Fluorometric Drug Discovery Kit)
- Type: biochemical
- recordedConditions: HDAC6 over HDAC1
propertyLabel: HDAC6 selectivity (fold)

>>> df
                                 smilestext             propertylabel  recordedvalue
0  FC(F)c1nnc(-c2ccc(Cn3nc(-c4cccs4)oc3=S)nc2)o1  HDAC6 selectivity (fold)            588
1  FC(F)c1nnc(-c2ccc(Cn3nc(-c4ccccn4)oc3=S)nc2)o1  HDAC6 selectivity (fold)           1171
2  FC(F)c1nnc(-c2ccc(Cn3nc(-c4ccc(CN5CCC5)s4)oc3=S)nc2)o1  HDAC6 selectivity (fold)           1109
3  FC(F)c1nnc(-c2ccc(Cn3nc(-c4ccc(CN5CC[C@H](F)C5)cc4)oc3=S)nc2)o1  HDAC6 selectivity (fold)            552
4  O=C1OCC(c2cccs2)=NN1Cc1ccc(-c2nnc(C(F)F)o2)cn1  HDAC6 selectivity (fold)            434
5  FC(F)c1nnc(-c2ccc(Cn3nc(-c4ccc(CN5CCCC5)cc4)oc3=S)nc2)o1  HDAC6 selectivity (fold)           2890
6  FC(F)c1nnc(-c2ccc(Cn3nc(-c4cccc(CN5CCCC5)c4)oc3=S)nc2)o1  HDAC6 selectivity (fold)            760
7  CC(C)N1CCN(c2cc(-c3nn(Cc4ccc(-c5nnc(C(F)F)o5)cn4)c(=S)o3)ccn2)CC1  HDAC6 selectivity (fold)            734

* * *

- studyTarget: human recombinant HDAC6 (Homo sapiens)
- protocolText: HDAC6 enzyme activity inhibition test (HDAC Fluorometric Drug Discovery Kit)
- recordedConditions: human recombinant HDAC6; same protocol as HDAC1
- Description: The following experiment was conducted to confirm the HDAC6 selectivity of the compound represented by Chemical Formula I of the present invention through the HDAC1 and HDAC6 enzyme activity inhibition test. HDAC enzyme activity was measured using HDAC Fluorometric Drug Discovery Kit (BML-AK511, 516) manufactured by Enzo Life Science. […] Then, the fluorescence value (Ex 360, Em 460) was measured using a multiplate reader (Flexstation 3, Molecular Device). […]
# if measured IC50 < 90 nM: yes (1)  # else: no (0)

                                 smilestext    class
0  O=c1oc(-c2ccccc2)nn1Cc1ccc(-c2nnc(C(F)F)o2)cn1   no (0)
1  O=c1sc(-c2ccccc2)nn1Cc1ccc(-c2nnc(C(F)F)o2)cn1   no (0)
2  CC(C)N1CCc2cc(-c3nn(Cc4ccc(-c5nnc(C(F)F)o5)cn4)c(=S)o3)sc2C1  yes (1)
3  Cc1nc(-c2nn(Cc3ccc(-c4nnc(C(F)F)o4)cn3)c(=S)o2)cs1  yes (1)
4  Fc1cc(-c2nnc(C(F)F)o2)cnc1Cn1nc(-c2ccccn2)oc1=S  yes (1)
5  Fc1c(-c2nn(Cc3ccc(-c4nnc(C(F)F)o4)cn3)c(=S)o2)cccc1C1CCN(C2CCC2)CC1  yes (1)
6  CN(C)Cc1cc(-c2nn(Cc3ccc(-c4nnc(C(F)F)o4)cn3)c(=S)o2)cs1  yes (1)
